target: TLR7 (Homo sapiens); construct: host or cells: HEK-Blue hTLR7 (HEK293-derived SEAP reporter cells); assay: Inhibition of R848-induced signaling in HEK-Blue hTLR7 cell line (Quanti-Blue); format: cell-based
property: TLR7 (normalized inhibitory effect on R848-induced signaling)

As a guide, the following entries are already answered.
CCOCc1nc(C(=O)O)c(-c2ccccc2)n1CC(C)(C)O ... 0.9
CCOCc1nc(C(=N)N)c(-c2ccccc2)n1CC(C)(C)O ... 0.8
CCOCc1nc(CF)c(-c2ccccc2)n1CC(C)(C)O ... 0.8

a = CCOCc1nc(C(C)(C)O)c(-c2ccccc2)n1CC(C)(C)O
b = CC(C)Cn1cnc(I)c1-c1ccccc1
c = CCOCc1nc(I)c(-c2ccccc2)n1CC(C)C
In: Let's sort these by TLR7 (normalized inhibitory effect on R848-induced signaling), smallest first. Go ahead? Give the labels in the order specified.
Out: c, b, a
(c: 0.1, b: 0.2, a: 0.8)

###

system: HEK-Blue hTLR8 cell line; experiment: Toxicity test of compounds (CCK-8 cell viability); format: cell-based, human; design: key: viability relative to control well (background-subtracted OD), 1 = control; conditions: normalized cell viability, HEK-Blue cell lines; also: test concentration or dose not given here
property: WST1 (normalized toxicity effect)
// no unit, no text: just the number

CCOCc1nc(I)c(-c2ccc(-c3ccccc3)cc2)n1CC(C)(C)O ... 0.6
CCOCc1nc(I)c(-c2cccc3ccccc23)n1CC(C)(C)O ... 0.8
CCOCc1nc(C(=N)N)c(-c2ccccc2)n1CC(C)(C)O ... 0.7
CCOCc1nc(I)c(-c2ccc(C)cc2)n1CC(C)(C)O ... 1.1
CCOCc1ncc(-c2ccccc2)n1CC(C)C ... 0.9

In: What does the data say about its WST1 (normalized toxicity effect)? Entry: CCOCc1nc(I)c(-c2ccccc2)n1CC(C)(C)O
Out: 0.9

###

test system: HEK-Blue hTLR8 cell line; experiment: Toxicity test of compounds (CCK-8 cell viability); type: cell-based, human; set-up: key: viability relative to control well (background-subtracted OD), 1 = control; conditions: normalized cell viability, HEK-Blue cell lines; also: test concentration or dose not given here
property: WST1 (normalized toxicity effect)
# output: bare number, no unit

CCOCc1nc(I)c(-c2cccc(-c3ccccc3)c2)n1CC(C)(C)O ... 0.9
CCOCc1nc(CO)c(-c2ccccc2)n1CC(C)(C)O ... 0.8

We now examine a further molecule.
In: What does the record list as WST1 (normalized toxicity effect) for CCOCc1nc(C)c(-c2ccccc2)n1CC(C)(C)O ?
Out: 0.8

###

biological target: TLR8 (Homo sapiens, UniProt Q9NR97); experiment: Inhibition of R848-induced signaling in HEK-Blue hTLR8 cell line (Quanti-Blue); conditions: R848-induced signaling, HEK-Blue hTLR8 cell line; value ± standard deviation, at least triplicate
Sequence (Q9NR97 27-1041): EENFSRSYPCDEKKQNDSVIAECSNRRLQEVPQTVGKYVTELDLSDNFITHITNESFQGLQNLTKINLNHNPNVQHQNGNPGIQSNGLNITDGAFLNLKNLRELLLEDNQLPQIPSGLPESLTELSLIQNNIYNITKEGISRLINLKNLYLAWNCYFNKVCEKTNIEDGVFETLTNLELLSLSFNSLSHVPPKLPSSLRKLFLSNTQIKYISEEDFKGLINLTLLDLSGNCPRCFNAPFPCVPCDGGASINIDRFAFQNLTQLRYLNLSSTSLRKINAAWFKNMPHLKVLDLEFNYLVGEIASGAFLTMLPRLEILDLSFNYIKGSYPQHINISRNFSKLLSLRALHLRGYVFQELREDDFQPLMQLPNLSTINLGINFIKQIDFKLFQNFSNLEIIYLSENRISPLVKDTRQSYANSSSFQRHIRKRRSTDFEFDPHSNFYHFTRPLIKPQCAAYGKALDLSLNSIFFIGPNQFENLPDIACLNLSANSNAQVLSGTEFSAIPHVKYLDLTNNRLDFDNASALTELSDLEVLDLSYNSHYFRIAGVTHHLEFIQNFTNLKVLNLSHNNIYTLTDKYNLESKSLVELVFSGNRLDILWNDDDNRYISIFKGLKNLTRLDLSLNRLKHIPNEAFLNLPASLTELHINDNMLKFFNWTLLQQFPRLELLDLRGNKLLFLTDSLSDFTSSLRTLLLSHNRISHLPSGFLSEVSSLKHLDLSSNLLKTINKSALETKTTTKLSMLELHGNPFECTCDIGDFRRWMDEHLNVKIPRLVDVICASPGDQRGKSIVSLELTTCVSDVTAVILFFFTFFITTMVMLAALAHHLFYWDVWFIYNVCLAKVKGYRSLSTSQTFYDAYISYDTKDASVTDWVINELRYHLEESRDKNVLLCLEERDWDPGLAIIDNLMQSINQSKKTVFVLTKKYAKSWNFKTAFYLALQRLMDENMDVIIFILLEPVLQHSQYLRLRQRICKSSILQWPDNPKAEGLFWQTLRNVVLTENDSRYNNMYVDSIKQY
property: IC50 (nM)

a = Fc1cccc(-n2cnnc2SCc2c(Cl)cccc2Cl)c1 [Compound 1]
b = COc1ccc(-n2c(CCCO)nnc2SC)cc1 [Compound 25]
c = CSc1nnc(CCO)n1-c1ccc(Cl)cc1Cl [Compound 4]
In: Rank the items in ascending order with respect to IC50. List the labels in the requested order.
Out: c, a, b
(c: 590 nM, a: 1950 nM, b: 3860 nM)

###

Target: TLR7 (Homo sapiens)
Construct: host or cells: HEK-Blue hTLR7 (HEK293-derived SEAP reporter cells)
Sequence (Q9NYK1 27-1049): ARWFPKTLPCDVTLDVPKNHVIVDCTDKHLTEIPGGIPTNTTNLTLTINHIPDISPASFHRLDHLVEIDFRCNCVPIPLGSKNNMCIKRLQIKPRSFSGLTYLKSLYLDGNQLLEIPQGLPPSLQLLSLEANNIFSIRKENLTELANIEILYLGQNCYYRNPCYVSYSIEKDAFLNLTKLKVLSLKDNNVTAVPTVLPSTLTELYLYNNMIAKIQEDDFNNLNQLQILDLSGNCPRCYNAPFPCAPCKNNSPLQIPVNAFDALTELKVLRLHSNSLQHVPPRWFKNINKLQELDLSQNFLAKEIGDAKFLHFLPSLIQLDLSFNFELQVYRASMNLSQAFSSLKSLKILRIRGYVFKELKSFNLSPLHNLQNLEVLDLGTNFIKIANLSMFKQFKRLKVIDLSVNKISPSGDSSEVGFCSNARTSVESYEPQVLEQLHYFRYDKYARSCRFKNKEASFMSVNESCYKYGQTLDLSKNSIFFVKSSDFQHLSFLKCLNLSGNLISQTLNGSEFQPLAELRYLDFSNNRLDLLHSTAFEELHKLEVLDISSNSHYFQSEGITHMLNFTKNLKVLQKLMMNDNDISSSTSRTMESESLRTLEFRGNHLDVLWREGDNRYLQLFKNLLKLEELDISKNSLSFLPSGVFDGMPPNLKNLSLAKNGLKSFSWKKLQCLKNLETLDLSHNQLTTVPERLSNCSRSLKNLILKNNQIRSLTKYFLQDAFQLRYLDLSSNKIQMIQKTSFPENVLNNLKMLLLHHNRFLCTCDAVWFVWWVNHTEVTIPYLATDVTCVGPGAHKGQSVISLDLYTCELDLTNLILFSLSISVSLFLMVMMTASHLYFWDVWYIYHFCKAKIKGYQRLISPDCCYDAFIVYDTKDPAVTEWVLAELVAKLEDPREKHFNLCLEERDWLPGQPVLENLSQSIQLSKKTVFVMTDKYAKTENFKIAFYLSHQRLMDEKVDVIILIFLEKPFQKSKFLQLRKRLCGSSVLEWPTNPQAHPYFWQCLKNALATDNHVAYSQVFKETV
Test: Inhibition of R848-induced signaling in HEK-Blue hTLR7 cell line (Quanti-Blue)
Type: cell-based
property: TLR7 (normalized inhibitory effect on R848-induced signaling)

Some entries whose results are on file:
CCOCc1nc(Cl)c(-c2ccccc2)n1CC(C)(C)O ... 1.1
CCOCc1nc(I)c(-c2cccc3ccccc23)n1CC(C)(C)O ... 0.9
CCOCc1nc(Br)c(-c2ccccc2)n1CC(C)C ... 0.1
CCOCc1nc(CO)c(-c2ccccc2)n1CC(C)(C)O ... 0.9

I = CCOCc1ncc(-c2ccccc2)n1CC(C)(C)O
II = CCOCc1nc(Cl)c(-c2ccccc2)n1CC(C)C
In: Which has the smaller recorded TLR7 (normalized inhibitory effect on R848-induced signaling), I or II ? Refer to your chosen item by its label in the answer.
Out: II

###

tested on: HEK-Blue hTLR8 cell line; experiment: Toxicity test of compounds (CCK-8 cell viability); format: cell-based, human; design: key: viability relative to control well (background-subtracted OD), 1 = control; conditions: normalized cell viability, HEK-Blue cell lines; also: test concentration or dose not given here
property: WST1 (normalized toxicity effect)
// return a plain number; no unit text

CCOCc1nc(C#N)c(-c2ccccc2)n1CC(C)(C)O [Compound 38] ... 0.7
CCOCc1nc(C(N)=O)c(-c2ccccc2)n1CC(C)(C)O [Compound 40] ... 0.8
CCOCc1nc(Br)c(-c2ccccc2)n1CC(C)(C)O [Compound 52] ... 1.1
CCOCc1nc(Br)c(-c2ccccc2)n1CC(C)C [Compound 57] ... 0.7
CCOCc1nc(I)c(-c2ccccc2)n1CC(C)C [Compound 58] ... 0.3
CCOCc1nc(CF)c(-c2ccccc2)n1CC(C)(C)O [Compound 46] ... 0.9
CCOCc1nc(C(=O)O)c(-c2ccccc2)n1CC(C)(C)O [Compound 54] ... 1.1
CCOCc1nc(C(C)C)c(-c2ccccc2)n1CC(C)(C)O [Compound 48] ... 0.8

In: What does the record list as WST1 (normalized toxicity effect) for CCOCc1nc(C=O)c(-c2ccccc2)n1CC(C)(C)O [Compound 41] ?
Out: 0.7

In: Form field: reported WST1 (normalized toxicity effect) of CCOCc1nc(C(=O)OC)c(-c2ccccc2)n1CC(C)(C)O [Compound 42]
Out: 0.9

In: What does the record list as WST1 (normalized toxicity effect) for CCOCc1nc(COC)c(-c2ccccc2)n1CC(C)(C)O [Compound 44] ?
Out: 0.8

In: Requested field: WST1 (normalized toxicity effect). Item: CCOCc1nc(Cl)c(-c2ccccc2)n1CC(C)C [Compound 56]
Out: 0.7

In: What does the data say about its WST1 (normalized toxicity effect)? Entry: CCOCc1ncc(-c2ccccc2)n1CC(C)(C)O [Compound 50]
Out: 0.9

In: Bench note: what WST1 (normalized toxicity effect) did CCOCc1nc(Cl)c(-c2ccccc2)n1CC(C)(C)O [Compound 51] show?
Out: 0.9

In: Any idea what its WST1 (normalized toxicity effect) is? The compound is CCOCc1nc(I)c(-c2ccc3ccccc3c2)n1CC(C)(C)O [Compound 63]
Out: 1.0

###

Target: TLR7 (Homo sapiens)
Construct: host or cells: HEK-Blue hTLR7 (HEK293-derived SEAP reporter cells)
Sequence (Q9NYK1 27-1049): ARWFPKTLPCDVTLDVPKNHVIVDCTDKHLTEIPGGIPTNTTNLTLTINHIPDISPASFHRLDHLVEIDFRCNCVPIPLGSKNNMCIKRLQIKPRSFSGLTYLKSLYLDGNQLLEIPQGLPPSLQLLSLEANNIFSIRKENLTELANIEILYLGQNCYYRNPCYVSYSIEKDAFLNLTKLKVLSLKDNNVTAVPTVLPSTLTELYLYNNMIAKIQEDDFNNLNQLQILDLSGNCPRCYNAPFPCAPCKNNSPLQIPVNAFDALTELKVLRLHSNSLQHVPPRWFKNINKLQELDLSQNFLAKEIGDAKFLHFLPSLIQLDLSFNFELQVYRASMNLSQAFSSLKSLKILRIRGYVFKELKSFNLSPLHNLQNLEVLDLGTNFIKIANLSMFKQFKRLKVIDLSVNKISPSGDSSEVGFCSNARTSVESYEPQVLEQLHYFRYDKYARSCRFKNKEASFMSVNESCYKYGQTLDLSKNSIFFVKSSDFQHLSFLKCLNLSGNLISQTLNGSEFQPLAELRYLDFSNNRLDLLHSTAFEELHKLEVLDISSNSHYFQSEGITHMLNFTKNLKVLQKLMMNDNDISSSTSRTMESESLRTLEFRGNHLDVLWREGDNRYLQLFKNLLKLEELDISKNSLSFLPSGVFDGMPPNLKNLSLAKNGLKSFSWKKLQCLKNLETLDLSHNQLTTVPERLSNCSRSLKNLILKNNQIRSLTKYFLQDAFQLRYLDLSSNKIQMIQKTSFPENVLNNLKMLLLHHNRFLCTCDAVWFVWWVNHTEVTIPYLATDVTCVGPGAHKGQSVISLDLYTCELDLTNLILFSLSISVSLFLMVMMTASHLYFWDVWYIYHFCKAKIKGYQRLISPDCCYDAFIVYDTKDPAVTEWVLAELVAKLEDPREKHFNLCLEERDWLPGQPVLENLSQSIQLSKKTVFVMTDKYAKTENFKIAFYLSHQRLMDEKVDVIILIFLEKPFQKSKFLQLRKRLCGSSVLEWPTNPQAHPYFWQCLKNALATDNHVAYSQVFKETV
Test: Inhibition of R848-induced signaling in HEK-Blue hTLR7 cell line (Quanti-Blue)
Format: cell-based
property: TLR7 (normalized inhibitory effect on R848-induced signaling)

CCOCc1nc(C=O)c(-c2ccccc2)n1CC(C)(C)O ... 1.1
CCOCc1nc(C(=O)OC)c(-c2ccccc2)n1CC(C)(C)O ... 0.9
CCOCc1nc(I)c(-c2cccc(-c3ccccc3)c2)n1CC(C)(C)O ... 0.9
CCOCc1nc(I)c(-c2ccc(-c3ccccc3)cc2)n1CC(C)(C)O ... 1.0
CCOCc1nc(I)c(-c2ccccc2)n1CC(C)(C)O ... 1.0
